- Test system: Plasmodium berghei
- Protocol Summary: Luciferase/luciferin-expressing antifolate-resistant parasites were used to infect a culture of HepG2 cells that were pre-incubated with compounds. Infected hepatocytes emit light due to the luciferase reaction. Assay results are presented as the percent inhibition of light emission compared to control. […]
- Type: functional
- Stated Conditions: sporozoite, HEPG2TOX_HILL_SLOPE 2.59, HEPG2TOX_R_SQUARED 0.943, PBLUC_HILL_SLOPE 11.1, PBLUC_R_SQUARED 0.624, read-out: LUCIFERASE INFECTION ASSAY - IC50
Result Type: IC50 (µM)
Provide the reading as a plain figure in µM.

Ask: Could you share what IC50 was measured for N#C/C(=N/Nc1ccc(OC(F)(F)F)cc1)C(N)=S , tested on Plasmodium berghei?
Reply: 3.57
